target_entity: Protein kinase C iota type (Homo sapiens)
Sequence (P41743 whole entry): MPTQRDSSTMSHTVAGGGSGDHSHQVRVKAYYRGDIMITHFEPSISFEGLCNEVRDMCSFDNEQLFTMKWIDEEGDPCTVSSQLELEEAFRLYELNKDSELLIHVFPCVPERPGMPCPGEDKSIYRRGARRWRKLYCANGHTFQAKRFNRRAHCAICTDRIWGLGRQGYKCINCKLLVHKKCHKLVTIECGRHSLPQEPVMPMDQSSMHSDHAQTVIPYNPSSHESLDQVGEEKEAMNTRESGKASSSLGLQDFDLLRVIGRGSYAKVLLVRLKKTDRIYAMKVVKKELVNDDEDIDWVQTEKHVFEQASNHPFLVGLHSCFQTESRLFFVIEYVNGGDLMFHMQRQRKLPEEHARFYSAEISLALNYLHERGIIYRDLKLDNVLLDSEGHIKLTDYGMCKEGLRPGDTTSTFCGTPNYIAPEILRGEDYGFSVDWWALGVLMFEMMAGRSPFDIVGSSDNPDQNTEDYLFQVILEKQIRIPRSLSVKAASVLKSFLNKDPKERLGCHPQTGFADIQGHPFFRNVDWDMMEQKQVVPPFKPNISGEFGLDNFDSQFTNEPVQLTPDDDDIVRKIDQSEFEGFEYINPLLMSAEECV
assay_metric: pIC50
On this scale, pIC50 is minus log10 of a concentration expressed in M (mol/L).

compound	readout_number
CN1C(=O)[C@@H](N2CCc3cn(Cc4ccccc4)nc3C2=O)COc2ccccc21 [TP-030-1]	6.00

Request the reported pIC50 associated with CN1C(=O)[C@@H](N2CCc3cn(CC4CCS(=O)(=O)CC4)nc3C2=O)COc2ccccc21 [TP-030n]
6.00
